Data provenance is patent US20170145113A1.

molecular target: T1, His-tagged human HtrA1 protease domain (human, UniProt Q92743 161-367); assay: SPR (BIACORE T200), huHtrA1-PD-His captured by anti-His, Fab injected
T1 construct: His-tagged protease domain; also called huHtrA1-PD-His; huHtrA1-PD
T1 sequence (Q92743 other isoform, or with tags, fused parts or gaps limits assumed): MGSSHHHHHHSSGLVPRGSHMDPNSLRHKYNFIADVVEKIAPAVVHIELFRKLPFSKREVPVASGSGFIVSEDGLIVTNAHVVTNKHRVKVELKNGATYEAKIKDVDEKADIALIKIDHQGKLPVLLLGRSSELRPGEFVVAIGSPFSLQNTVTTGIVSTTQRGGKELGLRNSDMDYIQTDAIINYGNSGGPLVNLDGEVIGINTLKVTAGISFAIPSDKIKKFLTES
value-type: kon (M⁻¹ s⁻¹)
Respond with the bare value in M⁻¹ s⁻¹.

Lab book: kon of combination mutant LC3.HC3 Fab (Fab, V domains shown, Fab) VH: EVQLVQSGAEVKKPGASVKVSCKASGYKFTDSEMHWVRQAPGQGLEWIGGVDPETDGAAYNQKFKGRATITRDTSTSTAYLELSSLRSEDTAVYYCTRGYDYDYALDYWGQGTLVTVSS VL: DIQMTQSPSSLSASVGDRVTITCRASSSVEFIHWYQQKPGKAPKPLISATSNLASGVPSRFSGSGSGTDFTLTISSLQPEDFATYYCQQWSSNPWTFGQGTKVEIK noted as 801000

Lab book: kon of combination mutant LC4.HC2 Fab (Fab, V domains shown, Fab) VH: EVQLVQSGAEVKKPGASVKVSCKASGYTFRDSEMHWVRQAPGQGLEWIGGVDPETDGAAYNQKFKGRATITRDTSTSTAYLELSSLRSEDTAVYYCTRGYDYDYALDYWGQGTLVTVSS VL: DIQMTQSPSSLSASVGDRVTITCRASSSVNFIHWYQQKPGKAPKPLISATSHLASGVPSRFSGSGSGTDFTLTISSLQPEDFATYYCQQWSSNPWTFGQGTKVEIK noted as 27800

Lab book: kon of combination mutant LC4.HC1 Fab (Fab, V domains shown, Fab) VH: EVQLVQSGAEVKKPGASVKVSCKASGYTFKDSEMHWVRQAPGQGLEWIGGVDPETDGAAYNQKFKGRATITRDTSTSTAYLELSSLRSEDTAVYYCTRGYDYDYALDYWGQGTLVTVSS VL: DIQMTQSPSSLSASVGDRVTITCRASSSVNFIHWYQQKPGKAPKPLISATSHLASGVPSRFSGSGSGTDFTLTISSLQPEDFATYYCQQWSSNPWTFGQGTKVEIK noted as 268000
